test_method_notes: qHTS for Stage-Specific Inhibitors of Vaccinia Orthopoxvirus: mCherry Reporter Primary qHTS; further: nearly all actives have a fitted effect of over 35% in size
particulars: Vaccinia virus mCherry reporter infection, fluorescence; series mostly up to 36.5 µM
Screen size: about 310,000 compounds; about 1,900 (0.61%) were called active. About 8% were inconclusive and are not listed. The call rests on the fitted dose curve; tested in A549 cells. The list comes from a sample in which actives are over-represented; it also holds close analogues and randomly drawn compounds.
Outcomes: True = active, False = inactive

[
  {
    "compound": "CC1=C(C(=O)N(C(C)C)C(C)C)CC(CC(=O)NCC2CCCCC2)C(=O)N1Cc1ccccc1 (centres undefined)",
    "qualitative_label": "False"
  },
  {
    "compound": "Cc1cc(-c2ccc(C)c(S(=O)(=O)N3c4ccccc4CC3C)c2)on1 (centres undefined)",
    "qualitative_label": "False"
  },
  {
    "compound": "COc1ccc(-c2nnc(-c3ccc4ccccc4c3)o2)cc1",
    "qualitative_label": "False"
  },
  {
    "compound": "CCN(C(=O)Nc1cccc2ccccc12)c1ccccc1",
    "qualitative_label": "False"
  },
  {
    "compound": "COc1cc2nc(N3CCCN(C)CC3)nc(NC3CC3)c2cc1OC",
    "qualitative_label": "False"
  },
  {
    "compound": "C/C=C/NNC(=O)Cc1ccc(OC)cc1",
    "qualitative_label": "True"
  },
  {
    "compound": "CC1=C(C(=O)Nc2ccccc2)SCCO1",
    "qualitative_label": "False"
  },
  {
    "compound": "O=C(Nc1cccc2ccccc12)c1[nH]c(-c2ccccc2)c2c1C(=O)N(C1CC1)C2=O",
    "qualitative_label": "False"
  },
  {
    "compound": "CC1=C(C(=O)Nc2ccccc2)S(=O)(=O)CCO1",
    "qualitative_label": "True"
  },
  {
    "compound": "COc1ccc(Cn2c(=O)[nH]c3cc(C(=O)N4CCN(C(=O)c5ccco5)CC4)ccc3c2=O)cc1",
    "qualitative_label": "False"
  },
  {
    "compound": "COCOc1cccc(CN2CCC(C)(Oc3ccc(SC)cc3)C2)c1 (centres undefined)",
    "qualitative_label": "False"
  },
  {
    "compound": "CC1Cc2ccccc2N1S(=O)(=O)c1c(N)n(C)c(=O)n(C)c1=O (centres undefined)",
    "qualitative_label": "False"
  },
  {
    "compound": "CC1(C)OC(=O)C2=C(C[C@@H](C3CCCCC3)O[C@@H]2c2ccc(Cl)cc2)O1",
    "qualitative_label": "False"
  },
  {
    "compound": "OC(CBr)C[n+]1cccc2cc(Br)ccc21 (centres undefined)",
    "qualitative_label": "False"
  }
]
